TARGET_DESC: AMPK
PROTOCOL: AMPK activation, enzyme-linked immunosorbent assay
Assay type: biochemical
RECORDED_CONDITIONS: Table 8, compounds of Table 1
MEASUREMENT_LABEL: EC50

Example cases with answers are listed next.
N#Cc1ccc(CN2CCC(NC(=O)c3cc4ccc(OC5CCN(Cc6cnn(-c7ccc(C#N)cc7)c6)CC5)cc4o3)CC2)cc1 [Compound 1-161] : 500 to 1000 nM
O=C(NC1CCN(Cc2ccc(F)cc2)CC1)c1cc(OC2CCN(c3ccc(C(F)(F)F)cc3)CC2)ccn1 [Compound 1-29] : 100 to 500 nM
Cc1c(C(=O)NC2CCN(Cc3ccc(F)cc3)CC2)oc2cc(OC3CCN(c4ccc(C(F)(F)F)cc4)CC3)ccc12 [Compound 1-63] : < 100 nM
O=S(=O)(NC1CCN(Cc2ccncc2)CC1)c1ccc(OC2CCN(c3ccc(C(F)(F)F)cc3)CC2)nc1 [Compound 1-51] : 100 to 500 nM
O=C(NC1CCN(Cc2ccc(F)cc2)CC1)c1cc2ccc(OC3CCN(c4ccc(OC(F)(F)F)cc4)CC3)cc2o1 [Compound 1-94] : < 100 nM
O=C(NC1CCN(Cc2ccccc2)CC1)c1cc2cc(OC3CCN(c4ccc(OC(F)(F)F)cc4)CC3)ccc2o1 [Compound 1-80] : < 100 nM

Then this compound:
Returns the measured EC50 for the input compound. Input: O=C(NC1CCN(CCc2ccccc2)CC1)c1ccc(OC2CCN(c3ccc(C(F)(F)F)cc3)CC2)cn1 [Compound 1-36] 500 to 1000 nM

* * *

TARGET_DESC: AMPK
PROTOCOL: AMPK activation, enzyme-linked immunosorbent assay
Format: biochemical
RECORDED_CONDITIONS: Table 12, compounds of Table 5
pEC50: −log10 of the molar value.
MEASUREMENT_LABEL: pEC50

Example cases with answers are listed next.
N#Cc1ccc(N2CCC(Oc3cccc(C(=O)NC4CCN(Cc5ccncc5)CC4)c3)CC2)cc1 [Compound 5-88] : 5.00 to 6.00
N#Cc1ccc(CN2CCC(NC(=O)c3cccc(OC4CCN(Cc5ccc(N6CCCC6)cc5)CC4)c3)CC2)cc1 [Compound 5-116] : > 6.00
CC(C)(C)c1ccc(CN2CCC(Oc3ccc(C(=O)NC4CCN(Cc5ccccc5)CC4)cc3F)CC2)cc1 [Compound 5-20] : > 6.00
N#Cc1ccc(CN2CCC(Oc3ccc(C(=O)NC4CCN(Cc5ccncc5)CC4)cc3)CC2)cc1 [Compound 5-83] : > 6.00
O=C(NC1CCN(Cc2ccccc2)CC1)c1ccc(OC2CCNCC2)c(Cl)c1 [Compound 5-93] : < 4.00

// lookup pEC50 | system=AMPK | key= O=C(NC1CCN(Cc2cccnc2)CC1)c1ccc(OC2CCN(c3ccc(C(F)(F)F)cc3)CC2)c(F)c1 [Compound 5-29] > 6.00

Repeat for the following compound: CC(C)(C)OC(=O)N1CCC(Oc2ccc(C(=O)NC3CCN(Cc4ccccc4)CC3)cc2F)CC1 [Compound 5-92] 5.00 to 6.00

* * *

TARGET_DESC: AMPK
PROTOCOL: AMPK activation, enzyme-linked immunosorbent assay
Assay type: biochemical
RECORDED_CONDITIONS: Table 10, compounds of Table 3
pEC50: −log10 of the molar value.
MEASUREMENT_LABEL: pEC50

Example cases with answers are listed next.
O=C(NC1CCN(Cc2ccncc2)CC1)c1cnc(OC2CCN(c3ccc(C(F)(F)F)cc3)CC2)cn1 : > 7.00
O=C(NC1CCN(Cc2ccncc2)CC1)c1cn2ccc(OC3CCN(c4ccc(C(F)(F)F)cc4)CC3)cc2n1 : > 7.00
N#Cc1ccc(CN2CCC(NC(=O)c3ccc4c(c3)CN(Cc3ccc(C#N)cc3)CC4)CC2)cc1 : > 7.00

Returns the measured pEC50 for the input compound. Input: `N#Cc1ccc(CN2CCC(NC(=O)c3cnc(OC4CCN(c5ccc(C(F)(F)F)cc5)CC4)cn3)CC2)cc1` > 7.00

Repeat for the following compound: `N#Cc1ccc(CN2CCC(NC(=O)c3ccc(C(=O)N4CCN(c5ccc(Cl)cc5)CC4)cc3)CC2)cc1` 4.00 to 5.00

Repeat for the following compound: `N#Cc1ccc(CN2CCC(NC(=O)c3ccc(C(=O)NC4CCN(Cc5ccc(C(F)(F)F)cc5)CC4)cc3)CC2)cc1` > 7.00

Repeat for the following compound: `N#Cc1ccc(CN2CCC(NC(=O)c3nc4ccc(OC5CCN(c6ccc(C(F)(F)F)cc6)CC5)cc4s3)CC2)cc1` 6.00 to 7.00

Repeat for the following compound: `CC(C)(C)OC(=O)N1CCC(NC(=O)c2nc3ccc(OC4CCN(c5ccc(C(F)(F)F)cc5)CC4)cc3o2)CC1` > 7.00

Repeat for the following compound: `O=C(NC1CCN(Cc2ccc(C(F)(F)F)cc2)CC1)c1ccc2c(c1)CN(Cc1ccc(F)cc1)CC2` 6.00 to 7.00

Repeat for the following compound: O=C(c1nc2ccc(OC3CCN(c4ccc(C(F)(F)F)cc4)CC3)cc2o1)N1CC2CC1CN2Cc1ccncc1 (centres unmarked) 6.00 to 7.00

Repeat for the following compound: `CC(C)(C)OC(=O)N1CCC(NC(=O)c2cnc(OC3CCN(c4ccc(C(F)(F)F)cc4)CC3)cn2)CC1` 5.00 to 6.00

Repeat for the following compound: `N#Cc1ccc(CN2CCC(NC(=O)c3ccc(C(=O)NC4CCN(c5ccccc5)CC4)cc3)CC2)cc1` 4.00 to 5.00

Repeat for the following compound: O=C(c1ccc(F)cc1)N1CC2CC1CN2C(=O)c1nc2ccc(OC3CCN(c4ccc(C(F)(F)F)cc4)CC3)cc2o1 (centres unmarked) > 7.00

Repeat for the following compound: `N#Cc1ccc(CN2CCC(NC(=O)c3cn4ccc(OC5CCN(c6ccc(C(F)(F)F)cc6)CC5)cc4n3)CC2)cc1` > 7.00
